target: Cell division control protein 42 homolog (Homo sapiens); test: blockade of fluorescent GTP uptake by Cdc42 wt – biochemical, bead-based multiplex flow cytometry, oxadiazole series, SAR follow-up (AID 2037); settings: GST-Cdc42 beads, Bodipy-FL-GTP binding, Ki calculated from EC50
Observable: Ki (nM)

Structure smiles string: COc1ccc(-c2coc(CCC(=O)N3CCN(c4cc(C)ccc4C)CC3)n2)cc1
Observable: Ki
Reported value: 480
//
Structure smiles string: COc1ccc(-c2noc(CCC(=O)N3CCN(c4ccccc4C(F)(F)F)CC3)n2)cc1
Observable: Ki
Reported value: 420
//
Structure smiles string: COc1ccc(-c2noc(CCC(=O)N3CCN(c4cc(C)ccc4C)CC3)n2)cc1
Observable: Ki
Reported value: 580
//
Structure smiles string: Cc1ccc(C)c(N2CCN(C(=O)CCc3nc(-c4cccc(Br)c4)no3)CC2)c1
Observable: Ki
Reported value: 450
//
Structure smiles string: COc1ccc(-c2noc(CCC(=O)N3CCN(c4ccccc4C)CC3)n2)cc1
Observable: Ki
Reported value: 360
//
Structure smiles string: Cc1ccc(C)c(N2CCN(C(=O)CCc3nc(-c4cccc(Cl)c4)no3)CC2)c1
Observable: Ki
Reported value: 460
//
Structure smiles string: Cc1ccc(C)c(N2CCN(C(=O)CCc3nc(-c4ccccc4Br)no3)CC2)c1
Observable: Ki
Reported value: 490

Origin of measurements: PubChem BioAssay AID2037
